# IC50 measurements, system: UniProt:Q92793
# Sequence (Q92793 1085-1192): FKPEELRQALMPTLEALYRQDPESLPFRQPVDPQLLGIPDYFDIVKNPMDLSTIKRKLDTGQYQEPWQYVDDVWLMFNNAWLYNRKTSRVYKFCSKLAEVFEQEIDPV
Number only, in pM; omit the unit.

Q: Item COC1CCC(n2c([C@@H]3C[C@H]4C[C@H]4C(=O)N3c3ccc(F)c(F)c3)nc3cc(-c4c(C)noc4C)ccc32)CC1 (single isomer, unassigned) [Compound 3B] has what recorded IC50?
Ans: 670

Q: Also need Cc1noc(C)c1-c1ccc2c(c1)nc([C@H]1CCCC(=O)N1c1ccc(F)c(F)c1)n2C1CC2C(C1)C2(F)F (some centres unmarked) [Compound 2B] , thanks.
Ans: 670

---

- experimental target: UniProt:Q09472
- Sequence (Q09472 1049-1156): as the sequence (Q92793 1085-1192) above, with N47S, V73I, F93Y, A98S counted along it
Consider the following compounds; for each one, report its IC50.
Number only, in nM; omit the unit.

Q: Item COC1CCC(n2c([C@H]3C[C@@H]4C[C@@H]4C(=O)N3c3ccc(F)c(F)c3)nc3cc(-c4c(C)noc4C)ccc32)CC1 (single isomer, unassigned) has what recorded IC50?
Ans: 14.1

Q: Also need COC1CCC(n2c([C@@H]3C[C@H]4C[C@H]4C(=O)N3c3ccc(F)c(F)c3)nc3cc(-c4c(C)noc4C)ccc32)CC1 (single isomer, unassigned) , thanks.
Ans: 2.88

Q: Also need Cc1noc(C)c1-c1ccc2c(c1)nc([C@H]1CCCC(=O)N1c1ccc(F)c(F)c1)n2C1CC2C(C1)C2(F)F (stereo partly drawn) , thanks.
Ans: 3.54
